Assay: Permeability from apical to basolateral side in MDCK cells at 50 uM
Type: ADME, cell-based, Canis lupus familiaris
Details: dog
Papp A→B at 50 µM of 5 ×10⁻⁶ cm/s or higher: YES. Under 5 ×10⁻⁶ cm/s: NO.

- INPUT SMILES: "Cc1ccc2[nH]c(N[C@H]3CN(C(=O)c4ccccc4)C[C@@H]3OC(=O)c3ccc(-c4ccccc4)cc3)nc2c1"
  GROUP LABEL: "YES"
- INPUT SMILES: "CC(C)(C)OC(=O)N1C[C@H](Nc2nc3cc(F)ccc3[nH]2)[C@@H](OCc2ccc(-c3ccccc3)cc2)C1"
  GROUP LABEL: "YES"
- INPUT SMILES: "CC(C)(C)OC(=O)N1C[C@H](Nc2nc3cc(F)ccc3[nH]2)[C@@H](OC(=O)c2ccc(-c3ccccc3)cc2)C1"
  GROUP LABEL: "NO"
- INPUT SMILES: "CC(C)c1ccc(C(=O)O[C@H]2CN(C(=O)OC(C)(C)C)C[C@@H]2Nc2nc3cc(F)ccc3[nH]2)cc1"
  GROUP LABEL: "NO"
- INPUT SMILES: "Cc1ccc2[nH]c(N[C@H]3CNC[C@@H]3OC(=O)c3ccc(-c4ccccc4)cc3)nc2c1"
  GROUP LABEL: "NO"
